Source of measurements: paper PMC6511231

Target: T1, LIN28ΔF73A/Y140A (human, UniProt Q9H9Z2 16-187, F73A;Y140A)
T1 sequence: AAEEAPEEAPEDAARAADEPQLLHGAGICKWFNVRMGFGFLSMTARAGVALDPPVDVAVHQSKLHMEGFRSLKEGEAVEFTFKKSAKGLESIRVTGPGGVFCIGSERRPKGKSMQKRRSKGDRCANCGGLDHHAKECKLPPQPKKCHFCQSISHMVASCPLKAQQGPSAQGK
Test: fluorescence polarization
ENDPOINT LABEL: Kd (nM)
State the answer as a number, implicitly in nM.

Param item = GGGGUAGUGAUUUUACCCUGUUUAGGAGAU (structured_RNA) [preE-let-7f-1-FAM] ; retrieve measured Kd.
589
